target-or-system: Itk (Homo sapiens, UniProt Q08881)
Construct: Kinases are expressed as either kinase domains or full length constructs; made in house
Sequence (Q08881 whole entry, species assumed, the tested form may be a part): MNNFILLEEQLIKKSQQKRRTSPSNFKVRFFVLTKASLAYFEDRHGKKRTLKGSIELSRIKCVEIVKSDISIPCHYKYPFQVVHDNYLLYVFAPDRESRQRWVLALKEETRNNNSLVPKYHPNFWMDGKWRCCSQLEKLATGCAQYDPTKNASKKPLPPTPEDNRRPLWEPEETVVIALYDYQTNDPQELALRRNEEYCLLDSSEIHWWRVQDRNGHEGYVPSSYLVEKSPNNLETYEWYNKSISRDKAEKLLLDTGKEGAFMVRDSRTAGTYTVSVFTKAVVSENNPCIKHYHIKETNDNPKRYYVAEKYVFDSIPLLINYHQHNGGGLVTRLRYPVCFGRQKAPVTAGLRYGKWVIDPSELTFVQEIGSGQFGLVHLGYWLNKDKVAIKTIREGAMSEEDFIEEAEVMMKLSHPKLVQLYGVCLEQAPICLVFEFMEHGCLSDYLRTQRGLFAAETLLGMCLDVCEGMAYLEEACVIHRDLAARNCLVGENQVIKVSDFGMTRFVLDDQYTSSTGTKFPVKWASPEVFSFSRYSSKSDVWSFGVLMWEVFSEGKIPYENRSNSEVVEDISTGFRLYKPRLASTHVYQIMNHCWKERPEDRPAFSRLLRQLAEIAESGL
run-description: Kinase inhibition assay (33P transfer), Itk
Assay type: biochemical
test-conditions: Table 3, class symbols; read-out: Itk-1
Record form. Attribute: IC50. Fill in for each entry.

Give reported IC50 value for COc1ccc(Nc2ncnc(N(C)c3ccc(S(=O)(=O)O)cc3)n2)cc1OC > 10.8 µM

Determine from records and report IC50 for COC(=O)c1ccc(-c2cc(Nc3ncnc(NCCc4ccc(OC)cc4)n3)[nH]n2)cc1 > 10.1 µM

Indicate the recorded IC50 value for this compound: CN(c1cccc(Cl)c1)c1ncnc(Nc2cccc(Cn3ccnn3)c2)n1 1.02 to 6.11 µM

Annotate the compound O=C(O)/C=C/c1ccc(Nc2ncnc(Nc3cc(-c4ccco4)[nH]n3)n2)cc1 with its measured IC50. < 1.03 µM

Look up IC50 of c1ccc(Cn2ncc3cc(Nc4ncnc(NCCN5CCCC5)n4)ccc32)cc1 and report it. 5.79 to 8.44 µM

Given the compound CNS(=O)(=O)Cc1ccc(Nc2ncnc(Nc3cc(-c4ccc(C(=O)OC)cc4)n[nH]3)n2)cc1 , write its reported IC50. > 9.1 µM

Specify measured IC50 for CCN(CC)CCN(C)c1ncnc(Nc2ccc(OC)c(OC)c2)n1 . > 12.5 µM

Look up and report measured IC50 for this entry: COc1cc(Nc2ncnc(-n3ccnc3Cl)n2)cc(OC)c1OC 1.1 to 6.62 µM

----------
Task for the reader: assign each of the following molecules its reported IC50.
target-or-system: c-Met (Homo sapiens)
Construct: Kinases are expressed as either kinase domains or full length constructs; made in house
Sequence (P08581 25-1390): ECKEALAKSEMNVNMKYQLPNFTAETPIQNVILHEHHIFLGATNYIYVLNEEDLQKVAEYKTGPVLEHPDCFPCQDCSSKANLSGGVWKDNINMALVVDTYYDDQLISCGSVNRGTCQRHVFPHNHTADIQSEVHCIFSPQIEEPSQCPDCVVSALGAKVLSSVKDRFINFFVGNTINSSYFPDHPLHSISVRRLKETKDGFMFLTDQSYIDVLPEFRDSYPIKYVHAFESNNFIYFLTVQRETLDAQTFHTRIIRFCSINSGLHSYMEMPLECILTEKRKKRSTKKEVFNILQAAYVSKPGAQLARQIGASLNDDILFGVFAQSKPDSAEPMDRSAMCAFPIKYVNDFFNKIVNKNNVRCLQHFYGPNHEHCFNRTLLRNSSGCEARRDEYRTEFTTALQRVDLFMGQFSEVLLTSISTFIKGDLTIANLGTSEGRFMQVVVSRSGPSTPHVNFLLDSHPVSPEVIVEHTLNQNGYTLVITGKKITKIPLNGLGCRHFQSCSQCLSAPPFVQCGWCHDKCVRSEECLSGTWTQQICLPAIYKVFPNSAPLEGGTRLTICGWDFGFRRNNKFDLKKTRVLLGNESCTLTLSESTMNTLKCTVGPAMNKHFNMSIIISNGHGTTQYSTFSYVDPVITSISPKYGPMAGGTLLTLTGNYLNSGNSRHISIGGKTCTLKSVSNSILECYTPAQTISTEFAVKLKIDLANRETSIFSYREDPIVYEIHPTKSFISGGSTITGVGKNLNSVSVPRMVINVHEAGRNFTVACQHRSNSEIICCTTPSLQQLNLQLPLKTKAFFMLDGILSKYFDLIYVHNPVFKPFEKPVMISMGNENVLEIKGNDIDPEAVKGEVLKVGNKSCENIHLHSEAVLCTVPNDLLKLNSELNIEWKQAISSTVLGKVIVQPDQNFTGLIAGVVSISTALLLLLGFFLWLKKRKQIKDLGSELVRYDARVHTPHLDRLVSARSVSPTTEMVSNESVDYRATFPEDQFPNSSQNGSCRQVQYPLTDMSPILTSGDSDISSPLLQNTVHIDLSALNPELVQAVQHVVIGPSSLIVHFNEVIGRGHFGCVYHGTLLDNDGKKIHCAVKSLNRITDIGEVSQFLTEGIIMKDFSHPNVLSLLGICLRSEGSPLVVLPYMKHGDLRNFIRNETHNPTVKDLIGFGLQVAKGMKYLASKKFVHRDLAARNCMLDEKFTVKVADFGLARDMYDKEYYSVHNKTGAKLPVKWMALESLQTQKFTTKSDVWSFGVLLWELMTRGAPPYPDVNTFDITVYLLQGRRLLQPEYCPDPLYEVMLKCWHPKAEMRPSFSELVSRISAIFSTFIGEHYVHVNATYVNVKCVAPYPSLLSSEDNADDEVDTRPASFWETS
run-description: Kinase inhibition assay (33P transfer), c-Met
Format: biochemical
test-conditions: Table 2, class symbols A-E; read-out: Met-1

Look up c-Met (Homo sapiens) data: IC50 of O=C(O)CNC(=O)c1ccc(Nc2ncnc(Nc3cc(-c4ccco4)[nH]n3)n2)cc1 [Compound 884] , then report it. 0.951 to 5.71 µM

Give c-Met (Homo sapiens) IC50 for the following molecule: COc1cc(Nc2ncnc(Nc3cc(-c4ccco4)[nH]n3)n2)cc(C(F)(F)F)c1 [Compound 821] 0.958 to 5.75 µM

Lab note: c-Met (Homo sapiens) assay, enter IC50 for COC(=O)c1ccc(-c2cc(Nc3ncnc(NCCc4ccc(OC)cc4)n3)[nH]n2)cc1 [Compound 817] here > 10.1 µM

Write IC50 of Clc1cccc(Nc2ncnc(Nc3ccc4[nH]ncc4c3)n2)c1 [Compound 134] ; system used: c-Met (Homo sapiens) < 1.18 µM

Provide IC50, system c-Met (Homo sapiens), entry c1ccc(Nc2ncccc2-c2ncnc(Nc3ccc(N4CCOCC4)cc3)n2)cc1 [Compound 1113] 0.94 to 5.64 µM

Specify the recorded IC50 for FC(F)(F)Sc1cccc(Nc2ncnc(Nc3cc(-c4ccco4)[nH]n3)n2)c1 [Compound 827] , system: c-Met (Homo sapiens). 0.954 to 5.72 µM

Look up and report IC50, with c-Met (Homo sapiens) as system, for COc1ccc(Nc2ncnc(N(C)c3ccc(C)cc3)n2)cc1OC [Compound 799] 1.14 to 6.83 µM

Lab note: c-Met (Homo sapiens) assay, enter IC50 for CN(c1cccc(Cl)c1)c1ncnc(Nc2ccc3nn(Cc4ccccc4)cc3c2)n1 [Compound 673] here 0.905 to 5.43 µM

Given Cc1cccc(Nc2ncnc(N(C)c3ccc4c(cnn4Cc4ccccc4)c3)n2)c1 [Compound 668] , report its IC50 on c-Met (Homo sapiens). 5.69 to 8.3 µM

Tell me its IC50 on c-Met (Homo sapiens): COc1cc(Nc2ncnc(-c3cccnc3Nc3ccc(C(F)(F)F)cc3)n2)cc(OC)c1OC [Compound 835] > 9.03 µM

Find the measured IC50 of COC(=O)c1ccc(-c2cc(Nc3ncnc(Nc4ccc(N5CCOCC5)cc4)n3)[nH]n2)cc1 [Compound 807] with c-Met (Homo sapiens) as test system. < 0.847 µM

Write down measured IC50 (c-Met (Homo sapiens)) for this molecule. COc1ccc(Nc2ncnc(Nc3ccc4c(c3)C(=O)N(C)C4=O)n2)cc1OC [Compound 856] > 11.1 µM

Please report the measured IC50 for COC(=O)c1ccc(-c2cc(Nc3ncnc(Nc4cc(=O)n(-c5ccccc5)[nH]4)n3)[nH]n2)cc1 [Compound 880] tested on c-Met (Homo sapiens). 0.852 to 5.11 µM

State recorded IC50 with c-Met (Homo sapiens), entry c1ccc(CNc2ncccc2-c2ncnc(Nc3ccc(N4CCOCC4)cc3)n2)cc1 [Compound 1105] , no comment. > 10.2 µM

Fill: IC50 (c-Met (Homo sapiens)) for this molecule FC(F)(F)Oc1ccc(Nc2ncnc(Nc3ccc4c(cnn4Cc4ccccc4)c3)n2)cc1 [Compound 906] 0.838 to 5.03 µM

Report measured IC50 on c-Met (Homo sapiens); entry: COc1cc(Nc2ncnc(-c3cccnc3Nc3ccc(C(C)=O)cc3)n2)cc(OC)c1OC [Compound 832] 0.847 to 5.08 µM

Enter measured IC50, system c-Met (Homo sapiens), for the molecule shown: COC(=O)c1ccc(-c2cc(Nc3ncnc(NC4=NC(=O)CS4)n3)[nH]n2)cc1 [Compound 881] 0.975 to 5.85 µM

// fetch IC50; item: CN(c1ccc(Cl)c(Cl)c1)c1ncnc(Nc2ccc3c(cnn3Cc3ccccc3)c2)n1 [Compound 903] ; system: c-Met (Homo sapiens) 5.04 to 7.35 µM

# lookup: c-Met (Homo sapiens) IC50, key = COc1ccc(CNc2nc3ccccc3n2-c2ncnc(Nc3cccc(C(=O)O)c3)n2)cc1 [Compound 1070] > 9.63 µM

Enter recorded IC50 with c-Met (Homo sapiens) for CN(c1cccc(Br)c1)c1ncnc(Nc2cccc(Cc3nnn[nH]3)c2)n1 [Compound 670] here. < 0.913 µM

Look up and report IC50, with c-Met (Homo sapiens) as system, for COc1cc(Nc2ncnc(N(CCO)c3ccccc3)n2)cc(OC)c1OC [Compound 637] 6.04 to 8.81 µM

Enter IC50 (test system c-Met (Homo sapiens)) for Fc1ccc(CNc2ncccc2-c2ncnc(Nc3ccc(N4CCOCC4)cc3)n2)cc1 [Compound 1106] > 9.84 µM

Please report the measured IC50 for COc1ccc(Nc2ncnc(N(C)c3ccccc3OC(F)(F)F)n2)cc1OC [Compound 867] tested on c-Met (Homo sapiens). < 0.949 µM

Quote IC50 with test system c-Met (Homo sapiens) for CCOc1cccc(Nc2ncnc(N3CCCc4cc(C)ccc43)n2)c1 [Compound 892] 1.11 to 6.64 µM

State measured IC50 of the molecule OCc1cccc(Nc2ncnc(-c3cccnc3NCc3ccc(F)cc3)n2)c1 [Compound 1104] with c-Met (Homo sapiens). > 11.2 µM

Provide IC50, recorded with c-Met (Homo sapiens), of COc1ccc(Nc2ncnc(Nc3cc(-c4ccc(C)cc4)n[nH]3)n2)c(C)c1 [Compound 1126] 1.03 to 6.19 µM

Write down measured IC50 (c-Met (Homo sapiens)) for this molecule. COC(=O)c1ccc(-c2cc(Nc3ncnc(NCCc4c[nH]c5ccccc45)n3)[nH]n2)cc1 [Compound 806] 0.88 to 5.28 µM

Fill in IC50 for CCOC(=O)c1cccc(Nc2ncnc(Nc3cc(-c4ccc(C(=O)OC)cc4)n[nH]3)n2)c1 [Compound 813] tested with c-Met (Homo sapiens). > 9.79 µM

Identify measured IC50 obtained with c-Met (Homo sapiens) for c1ccc(-c2cc(Nc3ncnc(Nc4ccc5[nH]ncc5c4)n3)[nH]n2)cc1 [Compound 1013] . 1.08 to 6.5 µM

Tell me its IC50 on c-Met (Homo sapiens): CC(C)Nc1ncccc1-c1ncnc(Nc2ccc3[nH]ncc3c2)n1 [Compound 1116] 1.15 to 6.93 µM

Give reported IC50 for COc1ccc2[nH]cc(CCNc3ncnc(Nc4ccc(OC)c(OC)c4)n3)c2c1 [Compound 855] (c-Met (Homo sapiens)) > 10.7 µM

# return IC50 for c1cc(Nc2ncnc(Nc3cc(-c4ccco4)[nH]n3)n2)cc(-c2cnco2)c1 [Compound 824] , test system: c-Met (Homo sapiens) < 1.04 µM

Report value only: IC50, c-Met (Homo sapiens), COc1cc(Nc2ncnc(-c3cccnc3NC(C)c3ccccc3)n2)cc(OC)c1OC (stereo not drawn) [Compound 843] > 9.81 µM
